// provenance: patent US20230357429A1

molecular target: T1, Peptide-8 (cysteine pairing not given here; also: biotinylated, site not given here); test: ELISA, Fab on captured biotin-peptide
T1 peptide: VDFCGLYHWPICYQ
Where no end group is shown, it is not given here.
This section presents binders with their documented EC50 values.
Could you give me the number in nM? Just the number is fine.

• TBD-21 (HC F108A) (Fab, V domains shown, Fab; also called HC F108A mutant) VH: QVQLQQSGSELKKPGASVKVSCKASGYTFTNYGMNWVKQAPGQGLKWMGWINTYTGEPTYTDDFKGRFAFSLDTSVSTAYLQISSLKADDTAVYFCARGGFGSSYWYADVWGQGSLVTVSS VL: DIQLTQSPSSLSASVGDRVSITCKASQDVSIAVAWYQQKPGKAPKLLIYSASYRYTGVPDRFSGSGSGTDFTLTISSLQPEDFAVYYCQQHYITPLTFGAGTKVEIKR = 12.9
• TBD-17 (HC S104A) (Fab, V domains shown, Fab; also called HC S104A mutant) VH: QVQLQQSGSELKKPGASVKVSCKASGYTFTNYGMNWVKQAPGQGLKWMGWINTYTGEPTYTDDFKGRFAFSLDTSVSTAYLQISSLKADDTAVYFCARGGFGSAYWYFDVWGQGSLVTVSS VL: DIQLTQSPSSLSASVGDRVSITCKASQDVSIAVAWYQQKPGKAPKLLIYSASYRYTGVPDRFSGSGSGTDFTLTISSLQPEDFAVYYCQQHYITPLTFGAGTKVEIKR = 8

Here is the next item to consider.
Return value of EC50 for input TBD-6 (LC I93A) (Fab, V domains shown, Fab; also called LC I93A mutant) VH: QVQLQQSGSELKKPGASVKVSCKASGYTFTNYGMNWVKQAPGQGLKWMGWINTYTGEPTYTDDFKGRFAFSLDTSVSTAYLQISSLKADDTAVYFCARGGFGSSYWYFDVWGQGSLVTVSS VL: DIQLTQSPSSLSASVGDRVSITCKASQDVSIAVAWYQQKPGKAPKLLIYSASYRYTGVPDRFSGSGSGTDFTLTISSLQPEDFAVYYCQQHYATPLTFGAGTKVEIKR , no commentary. 8.5
